These measurements were taken from PubChem BioAssay.

Biological target: Calmodulin-1 (Homo sapiens)
Assay: CALM1 binders on microarrays, EGTA buffer, profiling panel, biochemical, small-molecule microarray, Cy5-labelled CALM1 (AID 1111);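 also: labelled calmodulin applied in Tris saline Tween buffer holding calcium plus EGTA and DTT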
Settings: Cy5-CALM1 binding fluorescence, higher = more signal
Quick rule for you: composite z-score at 0.04 or higher means yes, lower means no.

Enquiry: Please check the record CCCCc1nc2c(c3c1C[C@H](C)OC3)CN(CCOc1ccccc1)CC2 and state if its composite z-score is at or above 0.04.
Return: no

Enquiry: Please check the record O=c1n(Cc2cc3c(cc2Cl)OCO3)c(=O)n2n1CC[C@@H]1C(=NOCc3ccccc3)[C@H]3O[C@H]3[C@@H](O)[C@@H]12 and state if its composite z-score is at or above 0.04.
Return: yes

Enquiry: Please check the record COc1ccc(O[C@@H]2[C@H](O)CO[C@@H]2C=Cc2ccccc2)cc1 and state if its composite z-score is at or above 0.04.
Return: yes

Enquiry: Please check the record Cc1cc2c(nc1C)CCCCN2CC(C)ON=C[C@@H](C)[C@H](OCc1ccccc1)C(C)C (some centres undefined) and state if its composite z-score is at or above 0.04.
Return: no

Enquiry: Please check the record COC(=O)CC=C[C@@H](C)[C@@H]1C=C[C@H](O)[C@@H](CO)O1 and state if its composite z-score is at or above 0.04.
Return: yes

Enquiry: Please check the record C[C@H]1CC[C@H]2C(=O)O[C@H](COc3ccc(C(C)(C)C)cc3)CN2[C@@H]1c1ccc(Br)cc1 and state if its composite z-score is at or above 0.04.
Return: yes

Enquiry: Please check the record COc1ccc(COC(=O)NN=C2C[C@@H](O)[C@@H](O)[C@@H]3[C@@H]4C(=O)N(Cc5ccccc5)C(=O)[C@@H]4CC[C@H]23)cc1 and state if its composite z-score is at or above 0.04.
Return: no

Enquiry: Please check the record CC(C)CCN1CCc2nc(COc3ccccc3)c3c(c2C1)CO[C@@H](C)C3 and state if its composite z-score is at or above 0.04.
Return: yes

Enquiry: Please check the record CC(CCN1CCCCc2nc(C)c(C)cc21)=NO[C@@H](C)c1cn([C@H](CO)Cc2ccccc2)nn1 and state if its composite z-score is at or above 0.04.
Return: yes

* * *

Target: Torsin-1A (Homo sapiens) (UniProt O14656)
Sequence (O14656 whole entry, looked up): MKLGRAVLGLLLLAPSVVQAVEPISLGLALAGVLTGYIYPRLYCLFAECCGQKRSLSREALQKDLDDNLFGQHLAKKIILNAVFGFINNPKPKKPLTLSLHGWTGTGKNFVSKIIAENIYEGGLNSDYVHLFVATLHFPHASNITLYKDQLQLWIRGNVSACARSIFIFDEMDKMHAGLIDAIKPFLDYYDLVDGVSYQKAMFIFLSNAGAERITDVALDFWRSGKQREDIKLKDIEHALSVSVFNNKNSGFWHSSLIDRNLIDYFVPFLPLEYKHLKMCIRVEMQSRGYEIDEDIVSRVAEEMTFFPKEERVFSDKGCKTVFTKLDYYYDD
Experiment: small-molecule binders of mutant TOR1A in lysate, primary screen, cell lysate, small-molecule microarray, COS7 lysate, 635/667 nm fluorescence (AID 1150);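 also: score pools 667 nm emission and signal to noise measuring lysate protein binding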
Details: COS7 hTOR1A mutant lysate, 635 nm fluorescence, higher = more signal
result.type: composite z-score

Enquiry: Item under review: O=C(NN=C1C[C@@H](O)[C@@H](O)[C@@H]2[C@@H]3C(=O)N(C[C@@H]4CCCO4)C(=O)[C@@H]3CC[C@H]12)OCc1ccccc1 . Reported composite z-score?
Return: 0.219

Enquiry: Item under review: COC(=O)[C@H]1[C@@H](O)[C@@]2(O)c3ccccc3O[C@@]2(c2ccccc2)[C@@H]1c1ccccc1 . Reported composite z-score?
Return: 0.258

Enquiry: Item under review: CC(=O)OC[C@H]1O[C@H](CC=NO[C@H](C)c2cn([C@H](CO)Cc3ccccc3)nn2)C=C[C@@H]1OC(C)=O . Reported composite z-score?
Return: 0.579

Enquiry: Item under review: CCOC(=O)[C@H](Cc1ccccc1)NC(=O)CCC1CC(OC(=O)NCCc2ccc(F)cc2)CC2(CCCC(COC(=O)NCc3ccccc3)O2)O1 (stereo not given in full) . Reported composite z-score?
Return: 0.129

Enquiry: Item under review: CC[C@@H](c1ccccc1)n1c(=O)n2n(c1=O)[C@H]1[C@H](O)[C@@H]3O[C@@H]3C(=NOC[C@@H](O)COCc3ccco3)[C@H]1CC2 . Reported composite z-score?
Return: -0.517

Enquiry: Item under review: CC(C)CCN1CCc2nc(COc3ccccc3)c3c(c2C1)CO[C@@H](C)C3 . Reported composite z-score?
Return: 0.434

Enquiry: Item under review: CCOC(=O)[C@H](CC(C)C)NC(=O)CCC1CC(OC(=O)NCCc2ccc(F)cc2)CC2(CCCC(COC(=O)NCCC(C)C)O2)O1 (stereo not given in full) . Reported composite z-score?
Return: 0.204

Enquiry: Item under review: CC(C)=NO[C@H](C)c1cn([C@H](CO)Cc2ccccc2)nn1 . Reported composite z-score?
Return: 0.015

Enquiry: Item under review: O=C1C[C@@H](O)[C@@H](O)[C@@H]2[C@@H]3C(=O)N(Cc4ccc5c(c4)OCO5)C(=O)[C@@H]3CC[C@H]12 . Reported composite z-score?
Return: 0.339

Enquiry: Item under review: O=C1[C@H]2[C@H]3[C@H](O)[C@H](O)CC(=NOCc4ccccc4)[C@@H]3CC[C@H]2C(=O)N1Cc1ccc2c(c1)OCO2 . Reported composite z-score?
Return: -0.0537

Enquiry: Item under review: CC(C)(C)N1C(=O)[C@H]2[C@H]3[C@H](O)[C@H](O)CC(=NO[C@@H]4O[C@H](CO)[C@@H](O)[C@H](O)[C@H]4O)[C@H]3CC[C@H]2C1=O . Reported composite z-score?
Return: 0.0791

Enquiry: Item under review: C=CC[C@@H]1C=C[C@H](ON=C[C@@H](C)[C@H](OCc2ccccc2)C(C)C)[C@@H](CO)O1 . Reported composite z-score?
Return: -0.396

Enquiry: Item under review: O=C1[C@H]2[C@H]3[C@H](O)[C@H](O)CC(=NOC[C@@H](O)COCc4ccco4)[C@H]3CC[C@H]2C(=O)N1Cc1ccccc1 . Reported composite z-score?
Return: 0.462

Enquiry: Item under review: CC(C)CON=C1C[C@@H](O)[C@@H](O)[C@@H]2[C@@H]3C(=O)N(C4CCCCC4)C(=O)[C@@H]3CC[C@@H]12 . Reported composite z-score?
Return: -0.0797

Enquiry: Item under review: CCOC(=O)[C@H](CC(C)C)NC(=O)CCC1CC(OC(=O)NCc2ccc3c(c2)OCO3)CC2(CCCC(COC(=O)NCc3cccc(C(F)(F)F)c3)O2)O1 (stereo not given in full) . Reported composite z-score?
Return: -0.272
